Listed here: molecules with reported IC50 for Tyk-2 (Homo sapiens (Human), UniProt P29597).

Some molecules with recorded IC50:
query: So what's the measured IC50 for this one? `N#CCC(=O)N1CCC[C@@H](Nc2c(-c3ncccn3)cnc3[nH]ccc23)C1`
result: 0.1 to 1 µM

query: Thanks! And `CS(=O)(=O)c1cnc(-c2cnc3[nH]ccc3c2N[C@@H]2CCCN(C(=O)CC#N)C2)o1` ?
result: 0.01 to 0.1 µM

query: Thanks! And `N#CCCN1CCC[C@@H](Nc2c(-c3ncco3)cnc3[nH]ccc23)C1` ?
result: 0.1 to 1 µM

query: Thanks! And `NC(=O)c1coc(-c2cnc3[nH]ccc3c2N[C@H]2CC[C@@H](O)C2)n1` ?
result: 0.1 to 1 µM

query: Thanks! And `CC(=O)c1cnc(-c2cnc3[nH]ccc3c2N[C@@H]2CCCN(C(=O)CC#N)C2)o1` ?
result: 0.01 to 0.1 µM

Next:
query: So what's the measured IC50 for this one? `CS(=O)(=O)c1cccc(-c2cnc3[nH]ccc3c2N[C@@H]2CCCN(C(=O)CC#N)C2)c1`
result: > 1 µM

query: Thanks! And `CNC(=O)c1coc(-c2cnc3[nH]ccc3c2N[C@@H]2CC[C@H](C)N(C(=O)CC#N)C2)n1` ?
result: ≤ 0.01 µM

query: Thanks! And `CN(C)C(=O)c1coc(-c2cnc3[nH]ccc3c2N[C@@H]2CCCN(C(=O)CC#N)C2)n1` ?
result: 0.01 to 0.1 µM

These data points were gathered from patent US11420966B2.
